These data points were gathered from patent US20240083857A1.

TARGET OR SYSTEM: human SOS1 (loading of human K-Ras^G12C-GDP with fluorescent GTP-analog) (Homo sapiens, UniProt Q07889)
TEST SUMMARY: Biochemical assay 3: K-Ras^G12C activation assay by hSOS1 (HTRF)
CONDITION SET: read-out: Assay 3 (KRAS-Activation by SOS no GTP) activity expressed as % inhibition at 20 μM; no GTP; at 20 μM
Given measured inhibition at 20 µM, output Condition met if it is greater than or equal to 40% and Condition not met if not.

Example entries and their recorded answers appear below.
>  <MOLECULE>
COc1cc2nc(C)nc(N[C@@H](C)c3ccc(-c4ccc(NC(=O)OC(C)(C)C)cc4)s3)c2cc1OC (stereo in doubt)

>  <CLASS LABEL>
Condition not met

$$$$
>  <MOLECULE>
COc1cc2nc(C)nc(N[C@@H](C)c3ccc(-c4cccc(NS(C)(=O)=O)c4)s3)c2cc1OC (stereo in doubt)

>  <CLASS LABEL>
Condition not met

$$$$
>  <MOLECULE>
CCCCOc1cccc(F)c1-c1cccc([C@@H](C)Nc2nc(C)nc3cc(OC)c(OC)cc23)c1

>  <CLASS LABEL>
Condition met

$$$$
>  <MOLECULE>
COc1cc2nc(C)nc(N[C@@H](C)c3ccc(-c4ccc(C(=O)N(C)C)cc4)s3)c2cc1OC (stereo in doubt)

>  <CLASS LABEL>
Condition met

$$$$
>  <MOLECULE>
COc1cc2nc(C)nc(NC(C)c3ccc4c(c3)OCCO4)c2cc1OC (stereo not shown)

>  <CLASS LABEL>
Condition met

$$$$
>  <MOLECULE>
COc1cc2nc(C)nc(N[C@H](C)c3cccc(-c4cc(Cl)cc(Cl)c4)c3)c2cc1OC

>  <CLASS LABEL>
Condition not met

$$$$

Check this molecule for inhibition at 20 µM at or above 40%: COc1cc2nc(C)nc(N[C@@H](C)c3ccc(/C=C/C4CCCCC4)s3)c2cc1OC (racemic)
Condition not met

---

TARGET OR SYSTEM: K-Ras^G12C : hSOS1 interaction (Homo sapiens, UniProt Q07889)
TEST SUMMARY: Biochemical assay 1: K-Ras^G12C interaction assay with hSOS1 (HTRF)
Assay type: binding
CONDITION SET: read-out: Assay 1 (KRAS-SOS Interaction) activity expressed as IC50
ENDPOINT LABEL: IC50 (nM)
Give the number; nM is assumed, so skip it.

Previously resolved entries follow.
>  <MOLECULE>
COc1cc2nc(C)nc(N[C@H](C)c3cccc(-c4ccn[nH]4)c3)c2cc1OC [Example 337]

>  <UNIT ANNOTATION>
nM

>  <RESULT>
344

$$$$
>  <MOLECULE>
COc1cc2nc(C)nc(NC(C)c3ccc(-c4cccc(C(N)=O)c4)s3)c2cc1OC (centres unmarked)

>  <UNIT ANNOTATION>
nM

>  <RESULT>
1120

$$$$
>  <MOLECULE>
COc1cc2nc(C)nc(NC(C)c3ccc(-c4ccccc4CCNC(=O)OC(C)(C)C)s3)c2cc1OC (centres unmarked)

>  <UNIT ANNOTATION>
nM

>  <RESULT>
16000

$$$$
>  <MOLECULE>
COc1cc2nc(C)nc(N[C@H](C)c3cccc(-c4cc(N)ccc4C)c3)c2cc1OC

>  <UNIT ANNOTATION>
nM

>  <RESULT>
542

$$$$
>  <MOLECULE>
COc1cc2nc(C)nc(N[C@@H](C)c3ccc(-c4ccc5c(ccn5C)c4)s3)c2cc1OC (racemic)

>  <UNIT ANNOTATION>
nM

>  <RESULT>
19600

$$$$
>  <MOLECULE>
COc1cc2nc(C)nc(NC(C)c3ccc(-c4ccccc4CN4CC5(COC5)C4)s3)c2cc1OC (centres unmarked)

>  <UNIT ANNOTATION>
nM

>  <RESULT>
51

$$$$
>  <MOLECULE>
COc1cc2nc(C)nc(NC(C)c3ccc(-c4ccc(CN)o4)s3)c2cc1OC (centres unmarked)

>  <UNIT ANNOTATION>
nM

>  <RESULT>
2800

$$$$

Now let's try a different one.
For COc1cc2nc(C)nc(NC(C)c3ccc(-c4ccccc4CNCC(=O)N(C)C)s3)c2cc1OC (centres unmarked) the molecule record lists IC50 as 148
